Field: pKd. Provide a value for each of the binders that follow.
- target.or.test.system: T1, biotin-labeled human PAD4 protein (human, UniProt Q9UM07 1-663, biotin on the Avi tag (biotin ligase BirA))
- T1 construct: also called Avi tag-human PAD4; biotin-labeled PAD4; not shown: Avi tag left on the N-terminal side after the GST tag was cleaved with PreScission Protease
- T1 sequence (Q9UM07 whole entry): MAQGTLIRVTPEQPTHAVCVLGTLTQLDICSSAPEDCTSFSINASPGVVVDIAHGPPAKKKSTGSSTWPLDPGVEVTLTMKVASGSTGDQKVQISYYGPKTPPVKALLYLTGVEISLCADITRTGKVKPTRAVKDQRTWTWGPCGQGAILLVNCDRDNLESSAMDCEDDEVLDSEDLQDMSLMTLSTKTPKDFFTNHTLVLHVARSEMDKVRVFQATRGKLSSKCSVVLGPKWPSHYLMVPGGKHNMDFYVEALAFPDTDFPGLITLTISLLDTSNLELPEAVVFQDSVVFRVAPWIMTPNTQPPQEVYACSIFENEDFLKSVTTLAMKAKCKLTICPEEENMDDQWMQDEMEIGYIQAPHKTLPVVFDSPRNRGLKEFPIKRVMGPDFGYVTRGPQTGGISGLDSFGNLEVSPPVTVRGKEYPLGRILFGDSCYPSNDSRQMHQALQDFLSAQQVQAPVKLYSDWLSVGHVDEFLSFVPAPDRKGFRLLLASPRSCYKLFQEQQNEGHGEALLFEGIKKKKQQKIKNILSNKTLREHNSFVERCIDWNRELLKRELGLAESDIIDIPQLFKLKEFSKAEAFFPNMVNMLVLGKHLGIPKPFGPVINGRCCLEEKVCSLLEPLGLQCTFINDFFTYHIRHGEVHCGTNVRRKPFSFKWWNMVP
- experiment.description: SPR, Biacore T200, biotin-labeled human PAD4 captured on chip, IgG as analyte
Numbers only, as −log10 of the molar value.

Recorded results for 3 binders are shown here.
| binder | value |
| --- | --- |
| Lib2(4R)-1-47 (antibody, V domains shown, Tested as full-length antibody (human IgG1/human k) from Expi293; also called Lib(4R)-1-47) VH: EVQLLESGGGLVQPGGSLRLSCAASGFTFSTYAMGWVRQAPGKGLEFVAAIRNDGSWTGYGTPYKTRFTISRDNSKNTLYLQMNSLRAEDTAVYYCAKYTGSSGGSIGAWGQGTLVTVSS VL: SYELTQPPSVSVSPGQTARITCSGGNRNYYYGWYQQKPGQAPVTVIYANDKRPSGIPERFSGSNSGSTTTLTISGVQAEDEADYYCGTATTGKYVFGGGTKLTVLG | 10.76 |
| Lib1(6R)-1-39 (antibody, human IgG1, lambda, V domains shown, Tested as full-length antibody (human IgG1/human k) from Expi293) VH: EVQLLESGGGLVQPGGSLRLSCAASGFTFSTYAMGWVRQAPGKGLEFVAAIRNDGSWTGTSVNAKTRFTISRDNSKNTLYLQMNSLRAEDTAVYYCAKYTGSSGGSIGAWGQGTLVTVSS VL: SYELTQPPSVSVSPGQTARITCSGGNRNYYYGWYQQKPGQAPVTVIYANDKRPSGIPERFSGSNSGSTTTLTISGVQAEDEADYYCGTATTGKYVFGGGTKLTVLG | 10.74 |
| Lib1(6R)-2-37 (antibody, human IgG1, lambda, V domains shown, Tested as full-length antibody (human IgG1/human k) from Expi293) VH: EVQLLESGGGLVQPGGSLRLSCAASGFTFSTYAMGWVRQAPGKGLEFVAAIRNDGSWTGIGYNQKSRFTISRDNSKNTLYLQMNSLRAEDTAVYYCGKYTGSSGGSIGAWGQGTLVTVSS VL: SYELTQPPSVSVSPGQTARITCSGGNRNYYYGWYQQKPGQAPVTVIYANDKRPSGIPERFSGSNSGSTTTLTISGVQAEDEADYYCGTALTGKYVFGGGTKLTVLG | 10.45 |

**Q:** Let me know recorded pKd for Lib2(5R)-2-25 (antibody, human IgG1, lambda, V domains shown, Tested as full-length antibody (human IgG1/human k) from Expi293) VH: EVQLLESGGGLVQPGGSLRLSCAASGFTFSTYAMGWVRQAPGKGLEFVAAIRNDGSWTGYPPPLKGRFTISRDNSKNTLYLQMNSLRAEDTAVYYCAKYTGSSGGSIGAWGQGTLVTVSS VL: SYELTQPPSVSVSPGQTARITCSGGNRNYYYGWYQQKPGQAPVTVIYANDKRPSGIPERFSGSNSGSTTTLTISGVQAEDEADYYCGTAYTGKYVFGGGTKLTVLG , thanks.
**A:** 10.80
